FYI, the data here is from PubChem BioAssay (NCI).

- measurement_protocol: NCI Yeast Anticancer Drug Screen. Data for the rad50 strain (AID 155);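 note: 0% = growth of vehicle-only cultures of the same strain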
- run_conditions: S. cerevisiae rad50 strain growth inhibition; at 50.0 µM (retest, dose inferred, filed as 5.0); hits give high values
Compounds without any hit were thinned out: in the full panel of roughly 79,000, 15% have a hit.
Would you please tag the item rule met when its growth inhibition is 90% or above, and rule not met when it is below?

These solved cases illustrate the format of a correct answer.
{"structure_smiles_string": "CC(C)(C)c1ccc2c(c1)C(=O)c1ccccc1C2=O", "label_value": "rule not met"}
{"structure_smiles_string": "O=C1C(=O)c2cccc([N+](=O)[O-])c2-c2ccccc21", "label_value": "rule met"}
{"structure_smiles_string": "Cc1c(Cl)c(C)c(Cl)c(O)c1Cl", "label_value": "rule met"}
{"structure_smiles_string": "COc1ccc(/C=C2\\SC(=S)N(/C=C3\\C(=O)N(c4ccccc4)N=C3C)C2=O)cc1OC", "label_value": "rule not met"}
{"structure_smiles_string": "CC(C)=CCC/C(C)=C/CN1C(=O)C=CC1=O", "label_value": "rule met"}

Q: Is reported growth inhibition greater than or equal to 90% here: `c1c[nH]c(CN2CCN(Cc3ncc[nH]3)CC2)n1`
Result: rule met

Q: Is reported growth inhibition greater than or equal to 90% here: `C[n+]1c(/C=C/c2ccc(/C=N/NC(=O)c3ccc(C(=O)N/N=C/c4ccc(/C=C/c5cn6ccccc6[n+]5C)cc4)cc3)cc2)cn2ccccc21`
Result: rule met

Q: Is reported growth inhibition greater than or equal to 90% here: `O=S(=O)(NNc1ccccc1)c1ccccc1`
Result: rule not met

Q: Is reported growth inhibition greater than or equal to 90% here: `CCCCCCCCCCCCCCCCCCNC(=S)/N=C/c1c(O)c2ccccc2[nH]c1=O`
Result: rule not met

----------
- measurement_protocol: NCI Yeast Anticancer Drug Screen. Data for the rad50EPP+ strain (AID 151);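 note: 0% = growth of vehicle-treated control cultures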
- run_conditions: S. cerevisiae rad50 mutant strain, at 100.0 µM, hits give high values
The panel holds about 79,000 compounds, 15% with a hit somewhere; the sample as a whole holds those more often.
quantity: growth inhibition (%)
Output spec: scalar in %, unitless text.

Sample answers from the record:
{"molecule": "CCCCCCCCN1COCC(COc2ccccc2C)OC1 (stereo unspecified)", "growth inhibition (%)": 18}
{"molecule": "NC(N)=NS(=O)(=O)c1ccc(Nc2c3ccccc3nc3c(C(=O)NC(CO)(CO)CO)cccc23)cc1", "growth inhibition (%)": 85}
{"molecule": "CCOC(=O)/C(=C\\c1ccc(F)cc1)C(C)=O", "growth inhibition (%)": 98}
{"molecule": "Cc1cc(C)c(S(=O)(=O)c2ccc(Cl)cc2)c(C)c1", "growth inhibition (%)": 21}
{"molecule": "O=C(O)c1cc2c(cc1S(=O)(=O)O)C1C(C3C2C2(Cl)C(Cl)=C(Cl)C3(Cl)C2(Cl)Cl)C2(Cl)C(Cl)=C(Cl)C1(Cl)C2(Cl)Cl (stereo unspecified)", "growth inhibition (%)": 61}

Memo: O=C1c2ccccc2N2OC3(N4CCCC4)CCCCC3C12c1ccccc1 (stereo unspecified) , reported growth inhibition: 99

Memo: COc1ccccc1/C=C\C(=O)C1COCN1 (stereo unspecified) , reported growth inhibition: 92

Memo: COc1cccc(C(NC2=NCCC=N2)c2cc3c(cc2O)OCO3)c1O (stereo unspecified) , reported growth inhibition: 9

Memo: `CO[C@@]1([C@@H](Cl)c2ccccc2)C(=O)N(C)/C(=C\c2ccccc2)C(=O)N1C` , reported growth inhibition: 5

Memo: `Fc1cc(F)c(F)c(S)c1F` , reported growth inhibition: 98

Memo: `CCOP(=O)(OCC)/C(C#N)=C\c1cccc2ccccc12` , reported growth inhibition: 41
